- system name: Sgk1 (Homo sapiens)
- Sequence (O00141 whole entry): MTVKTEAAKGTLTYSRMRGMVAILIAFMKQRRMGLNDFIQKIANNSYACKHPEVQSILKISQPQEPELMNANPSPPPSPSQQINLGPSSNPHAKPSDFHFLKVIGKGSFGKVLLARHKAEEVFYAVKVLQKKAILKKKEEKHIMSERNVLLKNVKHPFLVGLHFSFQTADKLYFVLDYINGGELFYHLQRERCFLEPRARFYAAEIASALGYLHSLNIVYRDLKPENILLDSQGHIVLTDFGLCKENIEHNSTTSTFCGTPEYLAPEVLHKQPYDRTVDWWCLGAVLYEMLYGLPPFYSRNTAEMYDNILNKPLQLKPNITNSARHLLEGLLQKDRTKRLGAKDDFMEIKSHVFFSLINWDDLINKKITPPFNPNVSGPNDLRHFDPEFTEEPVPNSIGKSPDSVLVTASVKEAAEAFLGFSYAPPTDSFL
- test method notes: Enzyme based assay for SGK1 (biotinylated Akt Substrates-2 peptide, Eu3+ Cryptate/XL665 detection)
- Type: biochemical
- measurement setup: 1 mM ATP; read-out: Sgk1 (1 mM ATP)
What IC50 was measured for each of the following?
Answers are plain numbers, in nM.

Examples with their reported IC50 follow.
compound="COc1ccc(F)c(S(=O)(=O)Nc2ccc(-c3ccc4c(N)n[nH]c4n3)cc2)c1 [drawing 140]" recorded_number=6.5
compound="COc1ccc(F)c(S(=O)(=O)Nc2ccc(-c3cc(C)c4c(N)n[nH]c4n3)cc2)c1 [drawing 111]" recorded_number=5.5
compound=COc1ccc(F)c(S(=O)(=O)Nc2ccc(-c3cc4c5c(n[nH]c5c3)NC(=O)CN4)cc2)c1 recorded_number=12.6
compound=COc1ccc(F)c(S(=O)(=O)Nc2ccc(-c3ccc4cn[nH]c4n3)cc2)c1 recorded_number=150

Answer for every listed entry: what is its IC50? The entries follow.
1. COc1ccc(F)c(S(=O)(=O)Nc2ccc(-c3cc4[nH]ncc4c(OCC4CNCCO4)n3)cc2)c1 (stereo not drawn) [drawing 99]
2. Nc1n[nH]c2cc(-c3ccc(NS(=O)(=O)c4cccc(Cl)c4Cl)cn3)ccc12

9.7
542
